These data points were gathered from patent US5364882A.

experimental-target: acyl-CoA: cholesterol acyltransferase (ACAT) (Oryctolagus cuniculus, UniProt G1SFD9)
Sequence (G1SFD9 1-524): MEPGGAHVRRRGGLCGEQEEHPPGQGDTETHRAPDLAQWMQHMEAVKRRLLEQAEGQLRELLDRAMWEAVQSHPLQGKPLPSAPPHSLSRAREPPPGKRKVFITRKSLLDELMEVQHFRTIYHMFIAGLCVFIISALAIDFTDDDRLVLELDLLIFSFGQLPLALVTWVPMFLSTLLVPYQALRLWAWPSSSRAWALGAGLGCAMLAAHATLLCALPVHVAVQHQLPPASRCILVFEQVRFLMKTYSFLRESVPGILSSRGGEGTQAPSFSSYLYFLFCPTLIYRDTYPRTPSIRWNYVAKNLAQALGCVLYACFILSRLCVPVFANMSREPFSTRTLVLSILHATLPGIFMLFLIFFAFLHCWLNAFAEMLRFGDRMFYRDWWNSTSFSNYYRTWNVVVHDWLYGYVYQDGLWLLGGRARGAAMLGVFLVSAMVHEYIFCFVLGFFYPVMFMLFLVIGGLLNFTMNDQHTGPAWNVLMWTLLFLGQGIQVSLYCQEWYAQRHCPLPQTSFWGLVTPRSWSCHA
parameter: IC50 (µM)
One number for each entry, in µM.

Request: Report measured IC50 on acyl-CoA: cholesterol acyltransferase (ACAT) (Oryctolagus cuniculus, UniProt G1SFD9); entry: CC(C)c1cccc(C(C)C)c1NC(=O)NS(=O)(=O)Oc1c(C(C)C)cccc1C(C)C
Result: 35

// moving on: another record for IC50
Request: Report measured IC50 on acyl-CoA: cholesterol acyltransferase (ACAT) (Oryctolagus cuniculus, UniProt G1SFD9); entry: CCCCCCC(C)OS(=O)(=O)NC(=O)Nc1c(C(C)C)cccc1C(C)C (racemic)
Result: 8.7
